Reported ED50 by item:
Test system: Rattus norvegicus
Test: Inhibition of serum TXB2 production in the rats after peroral administration
Type: functional
Conditions: po

compound="O=C(O)/C=C/c1ccc(Cn2ccnc2)cc1 [OZAGREL]" study_target="Rattus norvegicus" recorded_endpoint=ED50 test_value="0.1 mg/kg"
compound="CCOC(=O)CCCC/[N+]([O-])=C(/c1cccnc1)c1cccc(COC(=O)N2CCc3c(sc4c3C(c3ccccc3Cl)=NC(C)c3nnc(C)n3-4)C2)c1 (stereo unspecified)" study_target="Rattus norvegicus" recorded_endpoint=ED50 test_value="> 10 mg/kg"

Q: In one line, give reported ED50 of the entry CCOC(=O)CCCC/[N+]([O-])=C(/c1cccnc1)c1cccc(COC(=O)N2CCc3c(sc4c3C(c3ccccc3Cl)=NCc3nnc(C)n3-4)C2)c1 .
Ans: > 10 mg/kg

Q: In one line, give reported ED50 of the entry O=C(O)CCCC/C=C(/c1ccccc1)c1cccnc1 [ISBOGREL] .
Ans: 0.05 mg/kg

Q: In one line, give reported ED50 of the entry CCOC(=O)CCCC/[N+]([O-])=C(/c1cccnc1)c1cccc(CN2CCc3c(sc4c3C(c3ccccc3Cl)=NC(C)c3nnc(C)n3-4)C2)c1 (stereo unspecified) .
Ans: > 10 mg/kg

Q: In one line, give reported ED50 of the entry CCOC(=O)CCCC/[N+]([O-])=C(/c1cccnc1)c1cccc(CN2CCc3c(sc4c3C(c3ccccc3Cl)=NCc3nnc(C)n3-4)C2)c1 .
Ans: > 10 mg/kg
